- Test system: K562
- measurementDescription: inhibition of proliferation of K562 cells
- Assay type: cell-based
- cond: K562 CML line
measuredEndpoint: IC50

Ask: Identify measured IC50 associated with Cc1ccc(C[n+]2csc(CCO)c2C)c(N)n1
Reply: ~2000 nM
